B1: FCHO1 (parent)
chain: DKLALCHLELTRKLQDLIKDVLRY

# Variants of: B1
# Protocol Description: protein stability index of a GFP-peptide fusion (GPS, HEK-293T) (PSI 1-6); higher = more stable;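 further: lentivirally expressed fusions sorted by FACS into six bins by GFP to DsRed ratio, PSI derived from sequencing read proportions per bin multiplied by bin number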
# Experimental Conditions: c terminus: a fixed tail appended
Readout Type: protein stability index
Reply briefly: the number, and no unit.

As a guide, the following entries are already answered.
Item Sequence	protein stability index
DKLALCHLELTRKLQDNIKDVLRY [L17N]	2.13
DKLALCHLELTRKLQDLIKDELRY [V21E]	2.24
DKLALCHLELTRKLQDLIIDVLRY [K19I]	2.33
DKLALCHLELTRKLQDLCKDVLRY [I18C]	2.17
DKLALCHLELTRKLQNLIKDVLRY [D16N]	3.32
DKLALCSLELTRKLQDLIKDVLRY [H7S]	1.81
DKLALPHLELTRKLQDLIKDVLRY [C6P]	2.37
DKLALCHLELTRILQDLIKDVLRY [K13I]	1.15
DKLALCHLELTRKLQDVIKDVLRY [L17V]	2.4
DKLALCHLELTRKLQDLEKDVLRY [I18E]	3.6

Using the record for DKLALCHLELTRKLADLIKDVLRY [Q15A] , report its protein stability index.
2.11

Using the record for DKKALCHLELTRKLQDLIKDVLRY [L3K] , report its protein stability index.
2.23
